Data credit: patent US8921397B2

For each entry below, report its melting point value.
The reply should be a number in °C, with the unit left off.

Field melting point (entry O=C(N[C@H]1CC[C@H](CCN2CCC(c3coc4ccccc34)CC2)CC1)c1ccnc2ccccc12 ) reads 169

# melting point (molecule: O=C(N[C@H]1CC[C@H](CCN2CCC(c3coc4ccccc34)CC2)CC1)c1ccc2c(c1)OCO2 ) is 198

// field: melting point; key: O=C(N[C@H]1CC[C@H](CCN2CCC(c3coc4ccccc34)CC2)CC1)c1ccc(C2CCCCC2)cc1 ; value = 230

O=C(CC1CC1)N[C@H]1CC[C@H](CCN2CCC(c3coc4ccccc34)CC2)CC1 yielded melting point of 165

Summary for this molecule, CC(=O)N[C@H]1CC[C@H](CCN2CCC(c3coc4ccccc34)CC2)CC1 : melting point is 162

The value of melting point measured for the molecule CN(C)S(=O)(=O)N[C@H]1CC[C@H](CCN2CCC(c3coc4ccccc34)CC2)CC1 turned out to be 229

Value of melting point reported for the molecule CS(=O)(=O)CC(=O)N[C@H]1CC[C@H](CCN2CCC(c3coc4ccccc34)CC2)CC1 is 187

For this molecule ( O=C(N[C@H]1CC[C@H](CCN2CCC(c3coc4ccccc34)CC2)CC1)C1CCCOC1 (stereo partly shown) ), measured melting point is 188

// melting point lookup, molecule = CC(C)CC(=O)N[C@H]1CC[C@H](CCN2CCC(c3coc4ccccc34)CC2)CC1 , result: 182

Kindly note the recorded melting point for CC(C)CCC(=O)N[C@H]1CC[C@H](CCN2CCC(c3coc4ccccc34)CC2)CC1 , which is 179

Sure, the documented melting point for CC#CC(=O)N[C@H]1CC[C@H](CCN2CCC(c3coc4ccccc34)CC2)CC1 is 161

Field melting point (entry CC(C)(C)C1CCC(C(=O)N[C@H]2CC[C@H](CCN3CCC(c4coc5ccccc45)CC3)CC2)CC1 (stereo partly shown) ) reads 199

Record CCc1ccc(C(=O)N[C@H]2CC[C@H](CCN3CCC(c4coc5ccccc45)CC3)CC2)cc1 . Reported melting point: 192

So for Cc1nc(-c2ccc(C(=O)N[C@H]3CC[C@H](CCN4CCC(c5coc6ccccc56)CC4)CC3)cc2)no1 , the logged melting point turned out to be 194

melting point reading for O=C(N[C@H]1CC[C@H](CCN2CCC(c3coc4ccccc34)CC2)CC1)c1ccc(N2CCOCC2)nc1 : 215

Measured melting point, O=C(N[C@H]1CC[C@H](CCN2CCC(c3coc4ccccc34)CC2)CC1)c1ccc(-c2ccccc2)cc1 : 235

melting point for O=C(N[C@H]1CC[C@H](CCN2CCC(c3coc4ccccc34)CC2)CC1)c1ccc(Cl)cc1Cl is 187

Item: O=C(CC1CCOCC1)N[C@H]1CC[C@H](CCN2CCC(c3coc4ccccc34)CC2)CC1 | melting point: 175

Just so you know, measured melting point for O=C(N[C@H]1CC[C@H](CCN2CCC(c3coc4ccccc34)CC2)CC1)C1CCCO1 (mixture of isomers) came out at 132

# melting point (molecule: O=C(N[C@H]1CC[C@H](CCN2CCC(c3coc4ccccc34)CC2)CC1)C12CC3CC(CC(C3)C1)C2 ) is 200

get_value(item= CCS(=O)(=O)N[C@H]1CC[C@H](CCN2CCC(c3coc4ccccc34)CC2)CC1 , readout=melting point) returns 153

Lookup result for CC(C)(C)c1ccc(S(=O)(=O)N[C@H]2CC[C@H](CCN3CCC(c4coc5ccccc45)CC3)CC2)cc1 ; measured melting point: 171

Measured melting point, O=CN[C@H]1CC[C@H](CCN2CCC(c3coc4ccccc34)CC2)CC1 : 155

Lab note: CC(C)C(=O)N[C@H]1CC[C@H](CCN2CCC(c3coc4ccccc34)CC2)CC1 gave melting point of 173

Entry under test: CC[C@@H](O)CC(=O)N[C@H]1CC[C@H](CCN2CCC(c3coc4ccccc34)CC2)CC1 . Its melting point was 142

Per the records, this molecule ( O=C(N[C@H]1CC[C@H](CCN2CCC(c3coc4ccccc34)CC2)CC1)c1ccc(-c2cccnc2)cc1 ) has melting point equal to 224

Looking up CC(C)=CC(=O)N[C@H]1CC[C@H](CCN2CCC(c3coc4ccccc34)CC2)CC1 , I found its melting point recorded as 147

The reported melting point of the molecule CN(C)C(=O)CCC(=O)N[C@H]1CC[C@H](CCN2CCC(c3coc4ccccc34)CC2)CC1 was 167

Memo: O=C(Cc1ccc2c(c1)OCO2)N[C@H]1CC[C@H](CCN2CCC(c3coc4ccccc34)CC2)CC1 , reported melting point: 177

# molecule CS(=O)(=O)c1ccc(C(=O)N[C@H]2CC[C@H](CCN3CCC(c4coc5ccccc45)CC3)CC2)cc1 ; its melting point = 224

Quick note, melting point for CCC(C)C(=O)N[C@H]1CC[C@H](CCN2CCC(c3coc4ccccc34)CC2)CC1 (mixture of isomers) landed at 172
